Data credit: ChEMBL document CHEMBL2057091

A collection of compounds and their measured inhibition
measurementTarget: NAD-dependent protein deacetylase sirtuin-1 (Homo sapiens)
protocolDetails: Inhibition of Sirt1 expressed in human U2OS cells assessed as acetylation of p53 at 10 uM
Assay type: cell-based
Kindly answer with a numeric value in %, unit omitted.

INSERT INTO results (recordsmiles, measuredattribute, unitannotation, readoutvalue) VALUES
  ('CCCc1nn(C)c2c(=O)[nH]c(-c3cccc(Br)c3)nc12', 'inhibition', '%', 59);

Now look at this one.
// recorded inhibition for CCCc1nn(C)c2c(=O)[nH]c(-c3ccc(O)c(OC(F)F)c3)nc12 : 63

---

measurementTarget: NAD-dependent protein deacetylase sirtuin-1 (Homo sapiens)
protocolDetails: Inhibition of Sirt1 expressed in human U2OS cells assessed as acetylation of p53 at 10 uM
Assay type: cell-based
A collection of molecules and their measured inhibition
I'd appreciate it if you included the unit after the number.

Record excerpt, results attached:
INSERT INTO measurements (recordsmiles, measurementtarget, measuredattribute, readoutvalue) VALUES
  ('Cc1ccc(C(=O)Nc2ccc(S(=O)(=O)O)c3cc(S(=O)(=O)O)cc(S(=O)(=O)O)c23)cc1NC(=O)c1cccc(NC(=O)Nc2cccc(C(=O)Nc3cc(C(=O)Nc4ccc(S(=O)(=O)O)c5cc(S(=O)(=O)O)cc(S(=O)(=O)O)c45)ccc3C)c2)c1', 'NAD-dependent protein deacetylase sirtuin-1 (Homo sapiens)', 'inhibition', '79%'),
  ('Oc1nc(-c2ccc(F)cc2)nc2ccccc12', 'NAD-dependent protein deacetylase sirtuin-1 (Homo sapiens)', 'inhibition', '48%');

Now look at this one.
// recorded inhibition for CCCc1nn(C)c2c(=O)[nH]c(-c3cccc([N+](=O)[O-])c3O)nc12 : 61%
